// data source = PubChem BioAssay (NCI)

# Test system: SNB-75 CNS
# procedure_summary: NCI-60 one-dose screen, 48 h (100 = growth as untreated, 0 = no growth, -100 = all killed)
# details: 10 µM unless noted
Compounds without any hit were thinned out: in the full panel of roughly 83,000, 20% have a hit.
Listed compounds paired with reported growth
# output: bare number, implied unit %

Worked cases, answers included:
- compound: "CN(C)CCOc1ccc(/C(=C(/CCCCCCCCCC[P+](c2ccccc2)(c2ccccc2)c2ccccc2)c2ccccc2)c2ccccc2)cc1"
  system_under_test: "SNB-75 CNS"
  metric: "growth"
  observed_result: -88.7
- compound: "O=C(CSc1nnc(-c2cc(-c3ccc(Cl)cc3)nc3ccccc23)n1-c1ccccc1)Nc1ccc(Cl)cc1"
  system_under_test: "SNB-75 CNS"
  metric: "growth"
  observed_result: 94.2
- compound: "C=CCOC(=O)C1=C(C)N(CC)C(=O)N(CC)C1c1c(Cl)n(C)c2ccccc12 (centres undefined)"
  system_under_test: "SNB-75 CNS"
  metric: "growth"
  observed_result: 81.6
- compound: "COc1cc2cc(Oc3ccc(NC(=O)Nc4ccc(Cl)c(Cl)c4)cc3)c(C)nc2cc1OCCN1CCCCC1"
  system_under_test: "SNB-75 CNS"
  metric: "growth"
  observed_result: 96.8

Query: For the compound CC(C)(C)n1cc(-c2ccnc(NCCNS(=O)(=O)c3ccc(Br)cc3)c2)c(-c2cccc(O)c2)n1 , what growth is on record?
Response: 19.4

Query: For the compound Cc1nc2sc(C(=O)Nc3ccccc3)c(N)c2cc1C(O)c1ccccc1 (centres undefined) , what growth is on record?
Response: 36.9

Query: For the compound CSc1nn2c(-c3cc4cc(Br)ccc4oc3=O)ccnc2c1C#N , what growth is on record?
Response: 90.5

Query: For the compound CCOC(=O)/C=C1\S/C(=N\Nc2cc(=O)[nH]c3ccc(OC)cc23)N(c2ccccc2)C1=O , what growth is on record?
Response: 91.1

Query: For the compound CCN(CC)CCCNc1cc(OC)cc2cccnc12 , what growth is on record?
Response: 111

Query: For the compound COc1ccc2c(O)cc3c(c2c1)[C@H](CCl)CN3C(=O)c1cc2cc(NC(=O)CCN3CCOCC3)ccc2[se]1 , what growth is on record?
Response: -87.8
